Target: T1, mouse TREM2 on BWZ cells (mouse, UniProt Q99NH8 19-227)
T1 construct: whole, on cells; also called BWZ Mouse TREM2
T1 sequence (looked up): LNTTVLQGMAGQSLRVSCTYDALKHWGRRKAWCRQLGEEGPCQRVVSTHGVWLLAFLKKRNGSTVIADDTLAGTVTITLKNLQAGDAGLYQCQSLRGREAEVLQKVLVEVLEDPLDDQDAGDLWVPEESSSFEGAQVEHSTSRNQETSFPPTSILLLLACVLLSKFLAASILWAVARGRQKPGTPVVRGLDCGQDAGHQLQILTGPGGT
Assay: FACS, BWZ mouse TREM2
assayMetric: FOB Fold Over Background (fold)
Give the quantity in fold, number only.

Problem: Please report FOB Fold Over Background for the following binder: T1-25 (antibody, IgG1, V domains shown, huIgG1; also called TI-25; ADI-19092) VH: EVQLVESGGGLVQPGRSLRLSCAASGFTFDDYAMHWVRQAPGKGLEWVSGISWNSGSIGYADSVKGRFTISRDNAKNSLYLQMNSLRAEDTALYYCAKGGSRYSHFDYWGQGTLVTVSS VL: EIVLTQSPATLSLSPGERATLSCRASQSVSSYLAWYQQKPGQAPRLLIYDASNRATGIPARFSGSGSGTDFTLTISSLEPEDFAVYYCQQRSVLPLTFGGGTKVEIK
Result: 1.3

Problem: Provide FOB Fold Over Background value for the following binder: T1-30 (antibody, IgG1, V domains shown, huIgG1; also called TI-30) VH: QLQLQESGPGLVKPSETLSLTCTVSGGSISSSSYYWGWIRQPPGKGLEWIGSIYYSGSTYYNPSLKSRVTISVDTSKNQFSLKLSSVTAADTAVYYCARGRKAAAGIDEAEYFQHWGQGTLVTVSS VL: DIQMTQSPSSVSASVGDRVTITCRASQGISSWLAWYQQKPGKAPKLLIYAASSLQSGVPSRFSGSGSGTDFTLTISSLQPEDFATYYCQQVISFPTFGGGTKVEIK
Result: 0.8

Problem: Quickly give me recorded FOB Fold Over Background for T1-27 (antibody, IgG1, V domains shown, huIgG1; also called TI-27) VH: QVQLQESGPGLVKPSQTLSLTCTVSGGSISSGGYYWSWIRQHPGKGLEWIGYIYYSGSTYYNPSLKSRVTISVDTSKNQFSLKLSSVTAADTAVYYCARDSSIAGRATLSFDYWGQGTLVTVSS VL: DIQMTQSPSSLSASVGDRVTITCRASQSISSYLNWYQQKPGKAPKLLIYAASSLQSGVPSRFSGSGSGTDFTLTISSLQPEDFATYYCQQSFYDPITFGGGTKVEIK
Result: 1.2

Problem: Tell me measured FOB Fold Over Background for T1-19 (antibody, IgG1, V domains shown, huIgG1; also called TI-19; ADI-19086) VH: EVQLVESGGGLVQPGGSLRLSCAASGFTFSDHHMDWVRQAPGKGLEWVGRTRNKANSYTTEYAASVKGRFTISRDDSKNSLYLQMNSLKTEDTAVYYCARGPLGYKLWGQGTLVTVSS VL: DIQMTQSPSSVSASVGDRVTITCRASQGISSWLAWYQQKPGKAPKLLIYAASNLQSGVPSRFSGSGSGTDFTLTISSLQPEDFATYYCQQANSFPLTFGGGTKVEIK please.
Result: 0.8

Problem: Give the measured FOB Fold Over Background for T1-31 (antibody, IgG1, V domains shown, huIgG1; also called TI-31) VH: QLQLQESGPGLVKPSETLSLTCTVSGGSISSSSYYWGWIRQPPGKGLEWIGSIYYSGSTYYNPSLKSRVTISVDTSKNQFSLKLSSVTAADTAVYYCARDRRMWDPYGMDVWGQGTTVTVSS VL: DIQMTQSPSSLSASVGDRVTITCQASQDISNYLNWYQQKPGKAPKLLIYDASNLETGVPSRFSGSGSGTDFTFTISSLQPEDIATYYCQQYDDFPPITFGGGTKVEIK
Result: 0.9

Problem: Give reported FOB Fold Over Background value for T1-13 (antibody, IgG1, V domains shown, huIgG1; also called TI-13; ADI-19080) VH: EVQLVESGGGLVKPGGSLRLSCAASGFTFSSYSMNWVRQAPGKGLEWVSSISSSSNYIYYADSVKGRFTISRDNAKNSLYLQMNSLRAEDTAVYYCARGRYRRTGSLDVWGQGTMVTVSS VL: EIVLTQSPGTLSLSPGERATLSCRASQSVSSSFLAWYQQKPGQAPRLLIYGASSRATGIPDRFSGSGSGTDFTLTISRLEPEDFAVYYCQQLDSHPPTFGGGTKVEIK
Result: 1.2
